- Test system: defense-related genes in tomato plants
- ASSAY_SUMMARY: Induction of defense gene expression of tomato plants (RT-qPCR)
- Assay type: in vivo, tomato cv. Rio Grande
- TEST_SETTINGS: tomato leaves sprayed, 24 h; peptides and flg15 125 μM, JA 2.5 mM, ASM 300 mg/L; ΔΔCt relative to actin; above 2 = overexpression
Catalogue of PinII gene expression, fold induction values

Form: compound = `CCCC(=O)NCCCC[C@H](NC(=O)[C@H](CCCCN)NC(C)=O)C(=O)N[C@@H](CC(C)C)C(=O)N[C@@H](Cc1ccccc1)C(=O)N[C@@H](CCCCN)C(=O)N[C@@H](CCCCN)C(=O)N[C@H](C(=O)N[C@@H](CC(C)C)C(=O)N[C@@H](CCCCN)C(=O)N[C@@H](Cc1ccc(O)cc1)C(=O)N[C@@H](CC(C)C)C(N)=O)[C@@H](C)CC` ; PinII gene expression, fold induction = 0.4

Form: compound = `CCCCCC(=O)NCCCC[C@H](NC(=O)[C@H](Cc1ccc(O)cc1)NC(=O)[C@H](CCCCN)NC(=O)[C@H](CC(C)C)NC(=O)[C@@H](NC(=O)[C@H](CCCCN)NC(=O)[C@H](CCCCN)NC(=O)[C@H](Cc1ccccc1)NC(=O)[C@H](CC(C)C)NC(=O)[C@H](CCCCN)NC(=O)[C@H](CCCCN)NC(C)=O)[C@@H](C)CC)C(N)=O` ; PinII gene expression, fold induction = 5.8

Form: compound = `CCCC(=O)NCCCC[C@H](NC(=O)[C@H](CCCCN)NC(=O)[C@H](CC(C)C)NC(=O)[C@@H](NC(=O)[C@H](CCCCN)NC(=O)[C@H](CCCCN)NC(=O)[C@H](Cc1ccccc1)NC(=O)[C@H](CC(C)C)NC(=O)[C@H](CCCCN)NC(=O)[C@H](CCCCN)NC(C)=O)[C@@H](C)CC)C(=O)N[C@@H](CC(C)C)C(N)=O` ; PinII gene expression, fold induction = 2.8

---

Catalogue of MIC values
- Tested on: Erwinia amylovora PMV6076
- ASSAY_SUMMARY: MIC, growth inhibition in microtiter plates (TSB)
- Assay type: cell-based
- TEST_SETTINGS: Ea, 25°C, 48 h, OD 600 nm, lowest concentration with no growth, given as interval of tested concentrations, three replicates, experiment repeated twice

Guide cases for MIC, answers given:
CCCCCCCCCCCC(=O)NCCCC[C@H](NC(=O)[C@H](Cc1ccccc1)NC(=O)[C@H](CC(C)C)NC(=O)[C@H](CCCCN)NC(=O)[C@H](CCCCN)NC(C)=O)C(=O)N[C@@H](CCCCN)C(=O)N[C@H](C(=O)N[C@@H](CC(C)C)C(=O)N[C@@H](CCCCN)C(=O)N[C@@H](Cc1ccc(O)cc1)C(=O)N[C@@H](CC(C)C)C(N)=O)[C@@H](C)CC : >25 µM
CCCCCCCCCCCC(=O)NCCCC[C@H](NC(=O)[C@H](CCCCN)NC(=O)[C@H](Cc1ccccc1)NC(=O)[C@H](CC(C)C)NC(=O)[C@H](CCCCN)NC(=O)[C@H](CCCCN)NC(C)=O)C(=O)N[C@H](C(=O)N[C@@H](CC(C)C)C(=O)N[C@@H](CCCCN)C(=O)N[C@@H](Cc1ccc(O)cc1)C(=O)N[C@@H](CC(C)C)C(N)=O)[C@@H](C)CC : >25 µM

Would you kindly look at the next entry?
Form: compound = `CCCC(=O)NCCCC[C@H](NC(=O)[C@H](CC(C)C)NC(=O)[C@H](CCCCN)NC(=O)[C@H](CCCCN)NC(C)=O)C(=O)N[C@@H](CCCCN)C(=O)N[C@@H](CCCCN)C(=O)N[C@H](C(=O)N[C@@H](CC(C)C)C(=O)N[C@@H](CCCCN)C(=O)N[C@@H](Cc1ccc(O)cc1)C(=O)N[C@@H](CC(C)C)C(N)=O)[C@@H](C)CC` ; MIC = 6.2 to 12.5 µM

---

Catalogue of MIC values
- System: Penicillium expansum EPS26
- ASSAY_SUMMARY: MIC, antifungal growth inhibition in microtiter plates (PDB)
- Format: cell-based
- TEST_SETTINGS: Pe, 22°C, seven days, OD 600 nm, lowest concentration with no growth, given as interval of tested concentrations, three replicates, experiment repeated twice

Guide cases for MIC, answers given:
CCCCCCCCCCCC(=O)NCCCC[C@H](NC(=O)[C@H](CC(C)C)NC(=O)[C@H](CCCCN)NC(=O)[C@H](CCCCN)NC(C)=O)C(=O)N[C@@H](CCCCN)C(=O)N[C@@H](CCCCN)C(=O)N[C@H](C(=O)N[C@@H](CC(C)C)C(=O)N[C@@H](CCCCN)C(=O)N[C@@H](Cc1ccc(O)cc1)C(=O)N[C@@H](CC(C)C)C(N)=O)[C@@H](C)CC [BP395, Ac-KKLK(COC11H23)KKILKYL-NH2] : 12.5 to 25 µM
CCCCCC(=O)NCCCC[C@H](NC(=O)[C@H](CCCCN)NC(=O)[C@H](CCCCN)NC(C)=O)C(=O)N[C@@H](Cc1ccccc1)C(=O)N[C@@H](CCCCN)C(=O)N[C@@H](CCCCN)C(=O)N[C@H](C(=O)N[C@@H](CC(C)C)C(=O)N[C@@H](CCCCN)C(=O)N[C@@H](Cc1ccc(O)cc1)C(=O)N[C@@H](CC(C)C)C(N)=O)[C@@H](C)CC [BP370, Ac-KKK(COC5H11)FKKILKYL-NH2] : 6.2 to 12.5 µM
CCCCCCCCCCCC(=O)N[C@@H](CCCCN)C(=O)N[C@@H](CCCCN)C(=O)N[C@@H](CC(C)C)C(=O)N[C@@H](Cc1ccccc1)C(=O)N[C@@H](CCCCN)C(=O)N[C@@H](CCCCN)C(=O)N[C@H](C(=O)N[C@@H](CC(C)C)C(=O)N[C@@H](CCCCN)C(=O)N[C@@H](Cc1ccc(O)cc1)C(=O)N[C@@H](CC(C)C)C(N)=O)[C@@H](C)CC [BP391, C11H23CO-KKLFKKILKYL-NH2] : >25 µM
CCCC(=O)NCCCC[C@H](NC(=O)[C@H](CC(C)C)NC(=O)[C@@H](NC(=O)[C@H](CCCCN)NC(=O)[C@H](CCCCN)NC(=O)[C@H](Cc1ccccc1)NC(=O)[C@H](CC(C)C)NC(=O)[C@H](CCCCN)NC(=O)[C@H](CCCCN)NC(C)=O)[C@@H](C)CC)C(=O)N[C@@H](Cc1ccc(O)cc1)C(=O)N[C@@H](CC(C)C)C(N)=O [BP388, Ac-KKLFKKILK(COC3H7)YL-NH2] : 6.2 to 12.5 µM

Form: molecule = CCCCCCCCCCCC(=O)NCCCC[C@H](NC(=O)[C@H](CC(C)C)NC(=O)[C@@H](NC(=O)[C@H](CCCCN)NC(=O)[C@H](CCCCN)NC(=O)[C@H](Cc1ccccc1)NC(=O)[C@H](CC(C)C)NC(=O)[C@H](CCCCN)NC(=O)[C@H](CCCCN)NC(C)=O)[C@@H](C)CC)C(=O)N[C@@H](Cc1ccc(O)cc1)C(=O)N[C@@H](CC(C)C)C(N)=O [BP400, Ac-KKLFKKILK(COC11H23)YL-NH2] ; MIC = >25 µM

---

Catalogue of MIC values
- System: Penicillium expansum EPS26
- ASSAY_SUMMARY: MIC, antifungal growth inhibition in microtiter plates (PDB)
- Format: cell-based
- TEST_SETTINGS: Pe, 22°C, seven days, OD 600 nm, lowest concentration with no growth, given as interval of tested concentrations, three replicates, experiment repeated twice

Guide cases for MIC, answers given:
CCCCCC(=O)NCCCC[C@H](NC(=O)[C@H](CCCCN)NC(=O)[C@H](CC(C)C)NC(=O)[C@@H](NC(=O)[C@H](CCCCN)NC(=O)[C@H](CCCCN)NC(=O)[C@H](Cc1ccccc1)NC(=O)[C@H](CC(C)C)NC(=O)[C@H](CCCCN)NC(=O)[C@H](CCCCN)NC(C)=O)[C@@H](C)CC)C(=O)N[C@@H](CC(C)C)C(N)=O [BP377, Ac-KKLFKKILKK(COC5H11)L-NH2] : 3.1 to 6.2 µM
CCCC(=O)NCCCC[C@H](NC(=O)[C@@H](NC(=O)[C@H](CCCCN)NC(=O)[C@H](CCCCN)NC(=O)[C@H](Cc1ccccc1)NC(=O)[C@H](CC(C)C)NC(=O)[C@H](CCCCN)NC(=O)[C@H](CCCCN)NC(C)=O)[C@@H](C)CC)C(=O)N[C@@H](CCCCN)C(=O)N[C@@H](Cc1ccc(O)cc1)C(=O)N[C@@H](CC(C)C)C(N)=O [BP387, Ac-KKLFKKIK(COC3H7)KYL-NH2] : 6.2 to 12.5 µM

Form: molecule = CCCC(=O)NCCCC[C@H](NC(=O)[C@H](Cc1ccc(O)cc1)NC(=O)[C@H](CCCCN)NC(=O)[C@H](CC(C)C)NC(=O)[C@@H](NC(=O)[C@H](CCCCN)NC(=O)[C@H](CCCCN)NC(=O)[C@H](Cc1ccccc1)NC(=O)[C@H](CC(C)C)NC(=O)[C@H](CCCCN)NC(=O)[C@H](CCCCN)NC(C)=O)[C@@H](C)CC)C(N)=O [BP390, Ac-KKLFKKILKYK(COC3H7)-NH2] ; MIC = 6.2 to 12.5 µM

Numbers sourced from paper PMC6063448.
